# measurementProtocol: Tmax in rat at 10 mg/kg, po
# Format: ADME, organism-based
# Parameters: dose 10 mg/kg, route oral
# condition: in vivo
measurementLabel: Tmax (h)

A. CCC#CCOc1nc2oc(=O)cc(CCC3CCC3)c2c(=O)[nH]1
B. CCC#CCOc1nc2oc(=O)cc(CCCC3CC3)c2c(=O)[nH]1
Pick one: A or B . Which has the bigger Tmax number? Write the label of whichever entry you select.
B

* * *

# measurementProtocol: Cmax in rat at 10 mg/kg, po
# Assay type: ADME, organism-based
# Design: dose 10 mg/kg, route oral
# condition: in vivo
measurementLabel: Cmax (µM)

1. CCC#CCOc1nc2oc(=O)cc(CCCC3CC3)c2c(=O)[nH]1
2. CCC#CCOc1nc2oc(=O)cc(CCC3CCC3)c2c(=O)[nH]1
For the pair 1 and 2 , which entry has the numerically smaller recorded Cmax? Write the label of whichever entry you select.
2
(2: 15.7 µM, 1: 29.2 µM)
